Target: PCSK9 (Homo sapiens, UniProt Q8NBP7)
Sequence (Q8NBP7 153-692): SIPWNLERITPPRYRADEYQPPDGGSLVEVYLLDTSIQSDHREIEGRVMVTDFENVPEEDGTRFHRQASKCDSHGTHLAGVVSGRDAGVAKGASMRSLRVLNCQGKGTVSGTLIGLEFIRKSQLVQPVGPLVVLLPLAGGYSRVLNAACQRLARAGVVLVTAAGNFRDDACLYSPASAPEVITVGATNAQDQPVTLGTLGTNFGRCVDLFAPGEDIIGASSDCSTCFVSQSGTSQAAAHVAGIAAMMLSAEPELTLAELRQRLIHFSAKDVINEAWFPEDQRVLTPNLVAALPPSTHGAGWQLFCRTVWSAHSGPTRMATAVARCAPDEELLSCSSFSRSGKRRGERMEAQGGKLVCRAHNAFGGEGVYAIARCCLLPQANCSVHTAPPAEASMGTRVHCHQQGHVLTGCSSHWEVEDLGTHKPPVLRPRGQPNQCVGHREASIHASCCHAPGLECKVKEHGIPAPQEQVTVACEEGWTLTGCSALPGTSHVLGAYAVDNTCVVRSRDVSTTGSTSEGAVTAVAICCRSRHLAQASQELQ
Test: PCSK9 Alexa FRET Standard assay (displacement of AlexaFluor647 tagged cyclic peptide Reagent A)
Type: binding
Conditions: 0.5 nM PCSK9, 20 nM AF cyclic peptide Reagent A
pIC50: −log10 of the molar value. Numbered stars: 1 amine (or outer) side, 2 acyl side, 3 side chain; on linkers, the order of the positions; unused ones are H or OH. Bridge positions count the residues as written; N and C are the ends. Square brackets hold non-standard residues; d marks the D form. Peptide text beside a SMILES is read from it. Phe(4-CF3) = N[C@@H](Cc1ccc(C(F)(F)F)cc1)C(=O)O; Trp(7-aza) = N[C@@H](Cc1c[nH]c2ncccc12)C(=O)O; mXylylene = c1cc(C[*:1])cc(C[*:2])c1; 2Pal = N[C@@H](Cc1ccccn1)C(=O)O; 3Pal = N[C@@H](Cc1cccnc1)C(=O)O; Tle = CC(C)(C)[C@H](N)C(=O)O; αMeV = CC(C)[C@](C)(N)C(=O)O; Nva = CCC[C@H](N)C(=O)O; Ac4c = NC1(C(=O)O)CCC1; Mpa = O=C(O)CCS
EXPERIMENTAL_READOUT: pIC50

Requested read-out: pIC50. Entry: CCC[C@@H]1NC(=O)[C@H](Cc2ccccn2)NC(=O)[C@H]([C@@H](C)O)NC(=O)[C@H](Cc2c[nH]cn2)NC(=O)[C@H](Cc2ccc(O)cc2)NC(=O)[C@H](C(C)(C)C)NC(=O)CCSCc2cccc(c2)CSC[C@@H](C(N)=O)NC(=O)[C@H]([C@@H](C)O)NC(=O)[C@H](CCC)NC(=O)[C@H](Cc2ccc(O)cc2)NC(=O)[C@H](CCC(=O)O)NC1=O [Compound 271] ([Mpa][Tle]YHT[2Pal][Nva]EY[Nva]TC-NH2; linker 1-12 via mXylylene)
4.00 to 4.30

# iterate: CCC[C@@H]1NC(=O)[C@H](Cc2c[nH]c3ncccc23)NC(=O)[C@H]([C@@H](C)O)NC(=O)[C@H](Cc2cccnc2)NC(=O)[C@H](Cc2ccc(O)cc2)NC(=O)[C@H](C(C)(C)C)NC(=O)CCSCc2cccc(c2)CSC[C@@H](C(N)=O)NC(=O)[C@H]([C@@H](C)O)NC(=O)[C@H](CCC)NC(=O)[C@H](Cc2ccc(O)cc2)NC(=O)[C@H](CCC(=O)O)NC1=O [Compound 113] ([Mpa][Tle]Y[3Pal]T[Trp(7-aza)][Nva]EY[Nva]TC-NH2; linker 1-12 via mXylylene)
4.00 to 4.30

# iterate: CCC[C@@H]1NC(=O)[C@H](Cc2c[nH]c3ncccc23)NC(=O)[C@H]([C@@H](C)O)NC(=O)[C@H](Cc2c[nH]cn2)NC(=O)[C@H](Cc2ccc(O)cc2)NC(=O)[C@H](C(C)(C)C)NC(=O)CCSCc2cccc(c2)CSC[C@@H](C(N)=O)NC(=O)[C@H]([C@@H](C)O)NC(=O)[C@H](CCC)NC(=O)[C@H](Cc2ccc(C(F)(F)F)cc2)NC(=O)[C@H](CCC(=O)O)NC1=O [Compound 260] ([Mpa][Tle]YHT[Trp(7-aza)][Nva]E[Phe(4-CF3)][Nva]TC-NH2; linker 1-12 via mXylylene)
4.68 to 6.00

# iterate: CC(=O)N[C@H]1CSCc2cccc(c2)CSC[C@@H](C(N)=O)NC(=O)[C@H]([C@@H](C)O)NC(=O)[C@](C)(C(C)C)NC(=O)[C@H](Cc2ccc(O)cc2)NC(=O)[C@H](C)NC(=O)C2(CCC2)NC(=O)[C@H](Cc2c[nH]c3ncccc23)NC(=O)[C@H]([C@@H](C)O)NC(=O)[C@@H]2CCCN2C(=O)[C@H](Cc2ccc(O)cc2)NC(=O)[C@H](C(C)(C)C)NC1=O [Compound 183] (Ac-C[Tle]YPT[Trp(7-aza)][Ac4c]AY[αMeV]TC-NH2; linker 1-12 via mXylylene)
4.68 to 6.00

###

Target: PCSK9 (Homo sapiens)
Assay: PCSK9 Alexa FRET Standard assay (displacement of AlexaFluor647 tagged cyclic peptide Reagent A)
Type: binding
Settings: 0.5 nM PCSK9, 20 nM AF cyclic peptide Reagent A
pIC50: −log10 of the molar value. Numbered stars: 1 amine (or outer) side, 2 acyl side, 3 side chain; on linkers, the order of the positions; unused ones are H or OH. Bridge positions count the residues as written; N and C are the ends. Square brackets hold non-standard residues; d marks the D form. Peptide text beside a SMILES is read from it. X2 = O=C([C@@H]1C[C@@H](SC/C=C/C[*:3])CN1[*:1])[*:2]; Trp(7-aza) = N[C@@H](Cc1c[nH]c2ncccc12)C(=O)O; X5 = O=C([C@H](Cc1cnco1)N[*:1])[*:2]; mXylylene = c1cc(C[*:1])cc(C[*:2])c1; Aad = N[C@@H](CCCC(=O)O)C(=O)O; Pen = CC(C)(S)[C@H](N)C(=O)O; Tle = CC(C)(C)[C@H](N)C(=O)O; αMeV = CC(C)[C@](C)(N)C(=O)O; Nva = CCC[C@H](N)C(=O)O; Thp = NC1(C(=O)O)CCOCC1; Aib = CC(C)(N)C(=O)O; Mpa = O=C(O)CCS
Please respond with reported pIC50 for every item in the list.

Requested read-out: pIC50. Entry: CCC[C@@H]1NC(=O)[C@H](Cc2c[nH]c3ncccc23)NC(=O)[C@H]([C@@H](C)O)NC(=O)[C@H](Cc2cnco2)NC(=O)[C@H](Cc2ccc(O)cc2)NC(=O)[C@H](C(C)(C)C)NC(=O)CCSCc2cccc(c2)CSC[C@@H](C(N)=O)NC(=O)[C@H]([C@@H](C)O)NC(=O)[C@H](CCC)NC(=O)[C@H](Cc2ccc(O)cc2)NC(=O)[C@H](CCC(=O)O)NC1=O [Compound 106] ([Mpa][Tle]Y[X5]T[Trp(7-aza)][Nva]EY[Nva]TC-NH2; linker 1-12 via mXylylene)
4.68 to 6.00

# iterate: CC(=O)N[C@H]1CCCCNC(=O)CCC[C@@H](C(N)=O)NC(=O)[C@H]([C@@H](C)O)NC(=O)[C@](C)(C(C)C)NC(=O)[C@H](Cc2ccc(O)cc2)NC(=O)[C@H](C)NC(=O)C(C)(C)NC(=O)[C@H](Cc2c[nH]c3ncccc23)NC(=O)[C@H]([C@@H](C)O)NC(=O)[C@@H]2C[C@@H]3CN2C(=O)[C@H](Cc2ccc(O)cc2)NC(=O)[C@@H](NC1=O)C(C)(C)SC/C=C/CS3 [Compound 350] (Ac-K[Pen]Y[X2]T[Trp(7-aza)][Aib]AY[αMeV]T[Aad]-NH2; lactam 1-12; thioether 2-4)
6.00 to 7.00

# iterate: CC(=O)N[C@H]1CSCc2cccc(c2)CSC[C@H](C(N)=O)NC(=O)[C@H]([C@@H](C)O)NC(=O)[C@H](C)NC(=O)[C@H](Cc2ccc(O)cc2)NC(=O)[C@H](CCC(=O)O)NC(=O)[C@H](C)NC(=O)[C@H](Cc2c[nH]c3ncccc23)NC(=O)[C@H]([C@@H](C)O)NC(=O)[C@H](Cc2c[nH]cn2)NC(=O)[C@H](Cc2ccc(O)cc2)NC(=O)[C@H](C(C)(C)C)NC1=O [Compound 245] (Ac-C[Tle]YHT[Trp(7-aza)]AEYAT[dC]-NH2; linker 1-12 via mXylylene)
4.00 to 4.30

# iterate: CC(=O)N[C@H]1CSCc2cccc(c2)CSC[C@@H](C(N)=O)NC(=O)[C@H]([C@@H](C)O)NC(=O)[C@](C)(C(C)C)NC(=O)[C@H](Cc2ccc(O)cc2)NC(=O)[C@H](C)NC(=O)C2(CCOCC2)NC(=O)[C@H](Cc2c[nH]c3ncccc23)NC(=O)[C@H]([C@@H](C)O)NC(=O)[C@@H]2CCCN2C(=O)[C@H](Cc2ccc(O)cc2)NC(=O)[C@H](C(C)(C)C)NC1=O [Compound 181] (Ac-C[Tle]YPT[Trp(7-aza)][Thp]AY[αMeV]TC-NH2; linker 1-12 via mXylylene)
4.68 to 6.00
